- Test system: Roseomonas mucosa (RM)
- protocol.details: Effectiveness of peptides on spiked fuel samples (aqueous layer)
- Format: cell-based
- Parameters: key: (+) =1 (implying peptide activity in fuel environment); (X) = 0 (implying no activity in the desired range, indicated by microbial proliferation); Fuel x = -1(implying no activity in fuel environment)
- study.conditions: initial screening in spiked fuel
measured.attribute: activity considering MIC value/efficacy upon fuel co-incubation

{"compound": "CC(C)C[C@H](NC(=O)[C@@H](N)Cc1ccc(O)cc1)C(=O)N1CCC[C@H]1C(=O)N[C@@H](Cc1c[nH]c2ccccc12)C(=O)N[C@@H](CCCCN)C(=O)N[C@@H](Cc1c[nH]c2ccccc12)C(=O)N1CCC[C@H]1C(=O)N[C@@H](Cc1c[nH]c2ccccc12)C(=O)N[C@@H](Cc1c[nH]c2ccccc12)C(=O)N1CCC[C@H]1C(=O)N[C@@H](Cc1c[nH]c2ccccc12)C(=O)N[C@@H](CCCNC(=N)N)C(=O)N[C@@H](CCCNC(=N)N)C(=O)O [P14]", "measured": "X"}
{"compound": "CC[C@H](C)[C@H](N)C(=O)N[C@@H](CC(C)C)C(=O)N[C@H](C(=O)N[C@@H](Cc1c[nH]c2ccccc12)C(=O)N[C@@H](CCCCN)C(=O)N[C@@H](Cc1c[nH]c2ccccc12)C(=O)N1CCC[C@H]1C(=O)N[C@@H](Cc1c[nH]c2ccccc12)C(=O)N[C@@H](Cc1c[nH]c2ccccc12)C(=O)N1CCC[C@H]1C(=O)N[C@@H](Cc1c[nH]c2ccccc12)C(=O)N[C@@H](CCCNC(=N)N)C(=O)N[C@@H](CCCNC(=N)N)C(=O)O)[C@@H](C)CC [P18]", "measured": "X"}

====

- System: microbial clusters MY, KR, DN, MC, BL, RM, SP, PA, HR
- protocol.details: Broad-spectrum activity score (in-house scoring matrix)
- study.conditions: sum over 9 microbial clusters: (+) = 1, (X) = 0, Fuel x = -1
measured.attribute: Score
Just the number, please, no unit attached.

Field: example entries. Status: answers known.
{"compound": "CC[C@H](C)[C@H](N)C(=O)N[C@@H](CC(C)C)C(=O)N[C@H](C(=O)N[C@@H](Cc1c[nH]c2ccccc12)C(=O)N[C@@H](CCCCN)C(=O)N[C@@H](Cc1c[nH]c2ccccc12)C(=O)N1CCC[C@H]1C(=O)N[C@@H](Cc1c[nH]c2ccccc12)C(=O)N[C@@H](Cc1c[nH]c2ccccc12)C(=O)N1CCC[C@H]1C(=O)N[C@@H](Cc1c[nH]c2ccccc12)C(=O)N[C@@H](CCCNC(=N)N)C(=O)N[C@@H](CCCNC(=N)N)C(=O)O)C(C)C [P12]", "target": "microbial clusters MY, KR, DN, MC, BL, RM, SP, PA, HR", "Score": 4}
{"compound": "CC(C)C[C@H](NC(=O)[C@@H](N)Cc1ccc(O)cc1)C(=O)N1CCC[C@H]1C(=O)N[C@@H](Cc1c[nH]c2ccccc12)C(=O)N[C@@H](CCCCN)C(=O)N[C@@H](Cc1c[nH]c2ccccc12)C(=O)N1CCC[C@H]1C(=O)N[C@@H](Cc1c[nH]c2ccccc12)C(=O)N[C@@H](Cc1c[nH]c2ccccc12)C(=O)N1CCC[C@H]1C(=O)N[C@@H](Cc1c[nH]c2ccccc12)C(=O)N[C@@H](CCCNC(=N)N)C(=O)N[C@@H](CCCNC(=N)N)C(=O)O [P14]", "target": "microbial clusters MY, KR, DN, MC, BL, RM, SP, PA, HR", "Score": 1}

// below: Score requested for another compound
Provide microbial clusters MY, KR, DN, MC, BL, RM, SP, PA, HR Score reading for CC[C@H](C)[C@H](N)C(=O)N[C@@H](CC(C)C)C(=O)N[C@@H](CC(C)C)C(=O)N[C@@H](Cc1c[nH]c2ccccc12)C(=O)N[C@@H](CCCCN)C(=O)N[C@@H](Cc1c[nH]c2ccccc12)C(=O)N1CCC[C@H]1C(=O)N[C@@H](Cc1c[nH]c2ccccc12)C(=O)N[C@@H](Cc1c[nH]c2ccccc12)C(=O)N1CCC[C@H]1C(=O)N[C@@H](Cc1c[nH]c2ccccc12)C(=O)N[C@@H](CCCNC(=N)N)C(=O)N[C@@H](CCCNC(=N)N)C(=O)O [P19] .
3

Sourced from paper PMC12442081
